System: 485368-065-R3-J5-PDC spheroids with HUVEC/MSC, viability
Assay: Anticancer human tumor 485368-065-R3-J5-PDC patient-derived pancreatic carcinoma cell line growth inhibition [RAS]; active = viability on the fitted dose curve at most 10% of control; inactive = the rest
Settings: second compound 0.00949 µM; first compound 10 µM
Form entry, call: pick from active, inactive

[[record]]
compound = "CC(=O)OC12COC1CC(O)C1(C)C(=O)C(O)C3=C(C)C(OC(=O)C(O)C(NC(=O)OC(C)(C)C)c4ccccc4)CC(O)(C(OC(=O)c4ccccc4)C21)C3(C)C (stereo unspecified) + CCn1c(-c2cccnc2C(C)OC)c2c3cc(ccc31)N1CCOC(CC(NC(=O)C(C(C)C)N(C)C(=O)C3(F)CCN(C(=O)C#CC(C)(C)N(C)C)CC3)C(=O)N3CCCC(N3)C(=O)OCC(C)(C)C2)C1"
assay_target = "485368-065-R3-J5-PDC spheroids with HUVEC/MSC, viability"
classification = "inactive"

[[record]]
compound = "CC(Nc1ccc2c(c1)OCCn1cc(N3C(=O)OCC3C(F)F)nc1-2)C(N)=O (stereo unspecified) + CCn1c(-c2cccnc2C(C)OC)c2c3cc(ccc31)N1CCOC(CC(NC(=O)C(C(C)C)N(C)C(=O)C3(F)CCN(C(=O)C#CC(C)(C)N(C)C)CC3)C(=O)N3CCCC(N3)C(=O)OCC(C)(C)C2)C1"
assay_target = "485368-065-R3-J5-PDC spheroids with HUVEC/MSC, viability"
classification = "inactive"

[[record]]
compound = "CCC(CC)c1cc(NC2CCC(N)C2)n2nccc2n1 (stereo unspecified) + CCn1c(-c2cc(N3CCN(C)CC3)cnc2C(C)OC)c2c3cc(ccc31)-c1csc(n1)CC(NC(=O)C1CC1C)C(=O)N1CCCC(N1)C(=O)OCC(C)(C)C2"
assay_target = "485368-065-R3-J5-PDC spheroids with HUVEC/MSC, viability"
classification = "active"

[[record]]
compound = "CCC(CC)c1cc(NC2CCC(N)C2)n2nccc2n1 (stereo unspecified) + CCn1c(-c2cccnc2C(C)OC)c2c3cc(ccc31)N1CCOC(CC(NC(=O)C(C(C)C)N(C)C(=O)C3(F)CCN(C(=O)C#CC(C)(C)N(C)C)CC3)C(=O)N3CCCC(N3)C(=O)OCC(C)(C)C2)C1"
assay_target = "485368-065-R3-J5-PDC spheroids with HUVEC/MSC, viability"
classification = "active"

[[record]]
compound = "C[C@@H](NC(=O)c1ncnc(N)c1Cl)c1ncc(C(=O)Nc2cc(C(F)(F)F)c(Cl)cn2)s1 + CCn1c(-c2cc(N3CCN(C)CC3)cnc2C(C)OC)c2c3cc(ccc31)-c1csc(n1)CC(NC(=O)C1CC1C)C(=O)N1CCCC(N1)C(=O)OCC(C)(C)C2"
assay_target = "485368-065-R3-J5-PDC spheroids with HUVEC/MSC, viability"
classification = "inactive"


// outcome(item) with item = NC1c2ccccc2OC12CCN(c1cnc3c(N4CCCc5ncccc54)n[nH]c3n1)CC2 (stereo unspecified) + CCn1c(-c2cccnc2C(C)OC)c2c3cc(ccc31)N1CCOC(CC(NC(=O)C(C(C)C)N(C)C(=O)C3(F)CCN(C(=O)C#CC(C)(C)N(C)C)CC3)C(=O)N3CCCC(N3)C(=O)OCC(C)(C)C2)C1
inactive

---

Test system: 485368-065-R3-J5-PDC spheroids with HUVEC/MSC, viability
Experiment: Anticancer human tumor 485368-065-R3-J5-PDC cell line growth inhibition [RAS];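 also: spheroids exposed to agents for seven days before readout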
Details: curve of first compound; second compound 0.01 µM
Field: IC50. Provide a value for each of the compounds that follow.

[[record]]
compound = "CC(=O)OC12COC1CC(O)C1(C)C(=O)C(O)C3=C(C)C(OC(=O)C(O)C(NC(=O)OC(C)(C)C)c4ccccc4)CC(O)(C(OC(=O)c4ccccc4)C21)C3(C)C (centres undefined) + C=CC(=O)N1CCN(c2nc(OCC3CCCN3C)nc3c(F)c(-c4nc(N)cc(C)c4C(F)(F)F)c(Cl)cc23)C(C)C1"
reported_value = "< 0.0316 µM"

[[record]]
compound = "NC1c2ccccc2OC12CCN(c1cnc3c(N4CCCc5ncccc54)n[nH]c3n1)CC2 (centres undefined) + C=CC(=O)N1CCN(c2nc(OCC3CCCN3C)nc3c(F)c(-c4nc(N)cc(C)c4C(F)(F)F)c(Cl)cc23)C(C)C1"
reported_value = "> 10 µM"

[[record]]
compound = "C[C@@H](NC(=O)c1ncnc(N)c1Cl)c1ncc(C(=O)Nc2cc(C(F)(F)F)c(Cl)cn2)s1 + C=CC(=O)N1CCN(c2nc(OCC3CCCN3C)nc3c(F)c(-c4nc(N)cc(C)c4C(F)(F)F)c(Cl)cc23)C(C)C1"
reported_value = "> 10 µM"


Here is another compound to look at.
Entry CC(Nc1ccc2c(c1)OCCn1cc(N3C(=O)OCC3C(F)F)nc1-2)C(N)=O (centres undefined) + C=CC(=O)N1CCN(c2nc(OCC3CCCN3C)nc3c(F)c(-c4nc(N)cc(C)c4C(F)(F)F)c(Cl)cc23)C(C)C1 : reported IC50 = ?
> 10 µM

---

Test system: 485368-065-R3-J5-PDC spheroids with HUVEC/MSC, viability
Assay: Anticancer human tumor 485368-065-R3-J5-PDC cell line growth inhibition [RAS];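 also: spheroids exposed to agents for seven days before readout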
Settings: compound 0.1 µM; stronger effect = lower value
Field: viability, T/C. Provide a value for each of the compounds that follow.

[[record]]
compound = "CC(=O)OC12COC1CC(O)C1(C)C(=O)C(O)C3=C(C)C(OC(=O)C(O)C(NC(=O)OC(C)(C)C)c4ccccc4)CC(O)(C(OC(=O)c4ccccc4)C21)C3(C)C (stereo not given)"
reported_value = "15.4% [middle of 4 runs]"


// batch mode: one viability, T/C value per listed entry
1. CC(Nc1ccc2c(c1)OCCn1cc(N3C(=O)OCC3C(F)F)nc1-2)C(N)=O (stereo not given)
2. Cc1nc(N2CCC3(CC2)COC(C)C3N)c(CO)nc1Sc1ccnc(N)c1Cl (stereo not given)
3. CC(C)n1nc(-c2ccc3oc(N)nc3c2)c2c(N)ncnc21
4. O=C(c1ccc(F)c(F)c1Nc1ccc(I)cc1F)N1CC(O)([C@@H]2CCCCN2)C1

["90% [middle of 4 runs]", "93.5% [middle of 4 runs]", "23.6% [middle of 4 runs]", "36.6% [middle of 4 runs]"]
